# Tested System: histamine-H1 receptors (Cavia porcellus, UniProt P31389)
# Construct: performed in guinea pig cerebellum membranes; from tissue; host or cells: guinea pig cerebellum membranes
# Sequence (P31389 whole entry): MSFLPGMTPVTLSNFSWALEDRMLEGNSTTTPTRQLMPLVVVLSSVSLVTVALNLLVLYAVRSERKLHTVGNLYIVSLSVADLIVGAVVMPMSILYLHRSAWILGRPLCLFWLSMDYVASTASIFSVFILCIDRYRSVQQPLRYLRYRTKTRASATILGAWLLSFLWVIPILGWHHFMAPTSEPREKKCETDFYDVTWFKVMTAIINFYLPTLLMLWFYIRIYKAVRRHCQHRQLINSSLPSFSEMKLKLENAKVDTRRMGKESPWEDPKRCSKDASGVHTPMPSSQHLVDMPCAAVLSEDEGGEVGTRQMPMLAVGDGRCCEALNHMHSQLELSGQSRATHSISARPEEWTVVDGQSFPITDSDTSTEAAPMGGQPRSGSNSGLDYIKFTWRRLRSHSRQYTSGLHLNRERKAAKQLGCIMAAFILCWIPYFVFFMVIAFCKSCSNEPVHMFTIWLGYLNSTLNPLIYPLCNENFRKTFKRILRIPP
# Test Summary: Histamine-H1 receptor binding assay ([3H]-mepyramine, guinea pig cerebellum membranes)
Assay Metric: pIC50
# pIC50 is unitless: minus log10 of the molar concentration; print number only

Name the recorded pIC50 of the item "CCCCCn1cc(C2CCN(CCOCC(=O)O)CC2)c2ccccc21" in your answer.
6.76

----------
# Tested System: histamine-H1 receptors (Cavia porcellus)
# Construct: performed in guinea pig cerebellum membranes; from tissue; host or cells: guinea pig cerebellum membranes
# Test Summary: Histamine-H1 receptor binding assay ([3H]-mepyramine, guinea pig cerebellum membranes)
# Run Parameters: guinea pig cerebellum membranes, 0.7 nM [3H]-mepyramine; read-out: BINDING TO RECEPTOR H1 ( IC50 nM )
Assay Metric: IC50 (nM)
All answers are understood in nM, so give the number only.

Molecule | Tested System | IC50, nM
CCOCCn1cc(C2CCN(CCC(=O)O)CC2)c2ccccc21 [Example 153] | histamine-H1 receptors (Cavia porcellus) | 245

Name the recorded IC50 of the item CCCCCn1cc(C2CCN(Cc3ccc(C(=O)O)o3)CC2)c2ccccc21 [Example 41] in your answer.
111

----------
# Tested System: histamine-H1 receptors (Cavia porcellus, UniProt P31389)
# Construct: performed in guinea pig cerebellum membranes; from tissue; host or cells: guinea pig cerebellum membranes
# Test Summary: Histamine-H1 receptor binding assay ([3H]-mepyramine, guinea pig cerebellum membranes)
# Run Parameters: guinea pig cerebellum membranes, 0.7 nM [3H]-mepyramine; read-out: BINDING TO RECEPTOR H1 ( IC50 nM )
# Protocol: (1) Histamine-H1 receptor binding assay Briefly, the membrane suspensions (160 μg/ml) were incubated at 30° C. with 0.7 nM [^3H]- mepyramine and different concentrations of the test compounds in a final volume of 250 μl. Binding reactions were terminated by filtration after 30 min of incubation and the bound radioactivity was determined. The specific binding was measured in the presence of 10 μM of promethazine. […]
Assay Metric: IC50

Name the recorded IC50 of the item "CCCCCCn1cc(C2CCN(CCOc3ccccc3C(=O)O)CC2)c2ccccc21" in your answer.
142 nM

Name the recorded IC50 of the item "CCOCCn1cc(C2CCN(CCOc3cccc(C(=O)O)c3)CC2)c2ccccc21" in your answer.
145 nM

Name the recorded IC50 of the item "C=CCn1cc(C2CCN(CCOc3ccccc3C(=O)O)CC2)c2ccccc21" in your answer.
97 nM

Name the recorded IC50 of the item CCCCCn1cc(C2CCN(CCCC(O)c3ccc(C(C)(C)C(=O)O)cc3)CC2)c2ccccc21 (centres unmarked) in your answer.
127 nM

Name the recorded IC50 of the item "CCOCCn1cc(C2CCN(CCOc3ccc(C(=O)O)cc3)CC2)c2ccccc21" in your answer.
150 nM

----------
melting point values for the compounds below.

Smiles Text | melting point
O=C(O)c1ccccc1OCCN1CCC(c2c[nH]c3ccccc23)CC1 | 230 °C
O=C(O)Cc1ccc(OCCCN2CCC(c3cn(CC4CC4)c4ccccc34)CC2)cc1 | 83 to 85 °C

Name the recorded melting point of the item "COCCn1cc(C2CCN(CCOc3ccccc3C(=O)O)CC2)c2ccccc21" in your answer.
139 to 140 °C

Name the recorded melting point of the item "C=CCn1cc(C2CCN(CCOc3ccccc3C(=O)O)CC2)c2ccccc21" in your answer.
123 to 125 °C

Name the recorded melting point of the item "CCCCCn1cc(C2CCN(Cc3ccc(C(=O)O)o3)CC2)c2ccccc21" in your answer.
163 to 165 °C

Name the recorded melting point of the item "CCOCCn1cc(C2CCN(CCOc3ccc(C)cc3C(=O)O)CC2)c2cc(OC)ccc21" in your answer.
144 to 146 °C

Name the recorded melting point of the item "COCCOCCn1cc(C2CCN(Cc3ccc(C(=O)O)o3)CC2)c2ccccc21" in your answer.
159 °C

Name the recorded melting point of the item "O=C(O)c1cccc(CN2CCC(c3cn(CC4CC4)c4ccccc34)CC2)c1" in your answer.
207 °C

Name the recorded melting point of the item "CC(C)CCn1cc(C2CCN(CCOc3ccccc3C(=O)O)CC2)c2ccccc21" in your answer.
150 to 151 °C

----------
IC50 values for the compounds below.
# Tested System: histamine-H1 receptors (Cavia porcellus)
# Construct: performed in guinea pig cerebellum membranes; from tissue; host or cells: guinea pig cerebellum membranes
# Test Summary: Histamine-H1 receptor binding assay ([3H]-mepyramine, guinea pig cerebellum membranes)
# Run Parameters: guinea pig cerebellum membranes, 0.7 nM [3H]-mepyramine; read-out: BINDING TO RECEPTOR H1 ( IC50 nM )
All answers are understood in nM, so give the number only.

Smiles Text | IC50, nM
CCCCCn1cc(C2CCN(CCOc3ccccc3C(=O)O)CC2)c2ccccc21 | 57

Name the recorded IC50 of the item "CCOCCn1cc(C2CCN(CCc3ccc(C=CC(=O)O)cc3)CC2)c2ccccc21" in your answer.
59

Name the recorded IC50 of the item "O=C(O)c1ccccc1OCCN1CCC(c2cn(CC3CC3)c3ccccc23)CC1" in your answer.
140

Name the recorded IC50 of the item "CCOCCn1cc(C2CCN(CCOc3cccc(F)c3C(=O)O)CC2)c2cccc(Br)c21" in your answer.
152

Name the recorded IC50 of the item "O=C(O)c1ccccc1OCCN1CCC(c2cn(CC3CC3)c3cc(F)ccc23)CC1" in your answer.
121

Name the recorded IC50 of the item "CCOCCn1cc(C2CCN(CCCC(=O)O)CC2)c2ccccc21" in your answer.
347

Name the recorded IC50 of the item "O=C(O)Cc1ccc(OCCCN2CCC(c3cn(CC4CC4)c4ccccc34)CC2)cc1" in your answer.
68

Name the recorded IC50 of the item "O=C(O)c1ccccc1OCCN1CCC(c2cn(Cc3ccc(F)cc3)c3ccccc23)CC1" in your answer.
310

----------
Assay Metric: melting point (°C)
All answers are understood in °C, so give the number only.

Smiles Text | Numeric Value
CCCCCn1cc(C2CCN(CCOc3ccccc3C(=O)O)CC2)c2ccccc21 | 113

Now examine the next entry.
Name the recorded melting point of the item "O=C(O)c1ccccc1OCCN1CCC(c2cn(CC3CC3)c3cc(F)ccc23)CC1" in your answer.
97

----------
# Tested System: histamine-H1 receptors (Cavia porcellus)
# Construct: performed in guinea pig cerebellum membranes; from tissue; host or cells: guinea pig cerebellum membranes
# Test Summary: Histamine-H1 receptor binding assay ([3H]-mepyramine, guinea pig cerebellum membranes)
# Run Parameters: guinea pig cerebellum membranes, 0.7 nM [3H]-mepyramine; read-out: BINDING TO RECEPTOR H1 ( IC50 nM )
Label label 1 when IC50 < 100 nM; otherwise label 0.

The examples below pair each entry with its known result.
Compound | Group Label
CCOCCn1cc(C2CCN(CCOc3ccccc3C(=O)O)CC2)c2ccccc21 | label 1
CCOCCn1cc(C2CCN(CCOc3ccc(C)cc3C(=O)O)CC2)c2cccc(Br)c21 | label 0
COCCn1cc(C2CCN(CCOc3ccccc3C(=O)O)CC2)c2ccccc21 | label 1

Bench note: check whether "CCCCn1cc(C2CCN(CCOc3ccccc3C(=O)O)CC2)c2ccccc21" shows IC50 below 100 nM
label 0

Bench note: check whether "O=C(O)c1cccc(CN2CCC(c3c[nH]c4ccccc34)CC2)c1" shows IC50 below 100 nM
label 0

Bench note: check whether "C=CCOCCn1cc(C2CCN(CCOc3ccccc3C(=O)O)CC2)c2ccccc21" shows IC50 below 100 nM
label 1

Bench note: check whether "CCCCCn1cc(C2CCN(CCCOc3ccccc3C(=O)O)CC2)c2ccccc21" shows IC50 below 100 nM
label 1

Bench note: check whether "CC(C)CCn1cc(C2CCN(CCOc3ccccc3C(=O)O)CC2)c2ccccc21" shows IC50 below 100 nM
label 0

Bench note: check whether "CCOCCn1cc(C2CCN(Cc3cccc(C(=O)O)c3)CC2)c2ccccc21" shows IC50 below 100 nM
label 0

Bench note: check whether O=C(O)COCCN1CCN(C(c2ccccc2)c2ccc(Cl)cc2)CC1 (stereo not shown) [CETIRIZINE, reference compound] shows IC50 below 100 nM
label 0

----------
# Tested System: histamine-H1 receptors (Cavia porcellus, UniProt P31389)
# Construct: performed in guinea pig cerebellum membranes; from tissue; host or cells: guinea pig cerebellum membranes
# Test Summary: Histamine-H1 receptor binding assay ([3H]-mepyramine, guinea pig cerebellum membranes)
# Run Parameters: guinea pig cerebellum membranes, 0.7 nM [3H]-mepyramine; read-out: BINDING TO RECEPTOR H1 ( IC50 nM )
Label MET when IC50 < 100 nM; otherwise NOT MET.

Compound | Group Label
COCCOCCn1cc(C2CCN(Cc3ccc(C(=O)O)o3)CC2)c2ccccc21 [Example 40] | NOT MET

Bench note: check whether CCOCCn1cc(C2CCN(CCOc3ccc(C)cc3C(=O)O)CC2)c2cc(OC)ccc21 [Example 142] shows IC50 below 100 nM
NOT MET

Bench note: check whether CC(C)OCCn1cc(C2CCN(CCOc3ccccc3C(=O)O)CC2)c2ccccc21 [Example 108] shows IC50 below 100 nM
NOT MET

Bench note: check whether O=C(O)c1cccc(CN2CCC(c3cn(CC4CC4)c4ccccc34)CC2)c1 [Example 158] shows IC50 below 100 nM
NOT MET

Bench note: check whether CCOCCn1cc(C2CCN(CCOc3ccc(C)cc3C(=O)O)CC2)c2cc(F)ccc21 [Example 145] shows IC50 below 100 nM
NOT MET

Bench note: check whether CCOCCn1cc(C2CCN(CCCOc3cccc(C(=O)O)c3)CC2)c2ccccc21 [Example 19] shows IC50 below 100 nM
MET

Where do the numbers come from? From patent US6683096B2.
